Test system: U-251
Assay: NCI tumour cell line growth inhibition, 48 h
Calls of active or inactive are those of the source. Cut-off read from the data, not from the text of the source: active = GI50 up to about 1.1 µM and inactive = higher.
Property Name: GI50

Cc1c(C#N)c(=O)[nH]c(=O)n1CCN1CCN(C(=O)NCCCCCCNC(=O)N2CCN(CCn3c(C)c(C#N)c(=O)[nH]c3=O)CC2)CC1 :: > 100 µM (inactive)
Cc1ccc(C2CC(c3ccco3)=NN2c2ccccc2)o1 (stereo not drawn) :: > 100 µM (inactive)
C(=C1/CCCCC([n+]2ccccc2)=N1)/c1ccccc1 :: > 100 µM (inactive)
C[Si](C)(C)/N=C1\N2C(=NC1(C(F)(F)F)C(F)(F)F)Sc1ccccc12 :: > 50 µM (inactive)
COc1ccc2c(=O)cc(-c3ccc(OC)c(OC)c3OC)oc2c1 :: > 100 µM (inactive)

// for each compound below, give its GI50
1. COC(=O)/C(=N\N)C(C(=O)C(=O)Nc1cc(Cl)ccc1Cl)c1nc2ccc([N+](=O)[O-])cc2nc1O (stereo not drawn)
2. O=C(OCc1ccccc1)c1nc2ccccc2n1S(=O)(=O)c1ccccc1
3. C1=CC2C(C3CN(c4ccccc4)N=C13)C1C3C4C=CC21C=CC43 (stereo not drawn)
4. COc1ccc(N2C(=O)CC(=O)N(C(=O)CCCCCCCCC(=O)N3C(=O)CC(=O)N(c4ccc(OC)cc4)C3=S)C2=S)cc1
5. N=C(N)NS(=O)(=O)c1ccc(NNc2c3ccccc3nc3c(C(=O)Nc4ccc(S(=O)(=O)Nc5ncccn5)cc4)cccc23)cc1
6. COc1ccc(-c2nc(SCC(=O)NNC(=S)Nc3ccccc3)[nH]c2-c2ccc(OC)cc2)cc1
7. COC(=O)C(=O)C(C(=O)C(=O)Nc1nnc(S)[nH]1)c1nc2ccc([N+](=O)[O-])cc2nc1O (stereo not drawn)
8. COc1cc(Cn2c3c(c4c(CN(C)C)c(O)ccc42)C(=O)c2ccccc2C3=O)cc(OC)c1

Found:
1. > 100 µM (inactive)
2. > 100 µM (inactive)
3. > 100 µM (inactive)
4. > 100 µM (inactive)
5. 43.7 µM (inactive)
6. 17.5 µM (inactive)
7. > 100 µM (inactive)
8. 14.8 µM (inactive)

Hello, I would appreciate it if you could give GI50 for each entry below.
1. CCOC(=O)Oc1ccc2c(c1)c(=O)c1c(NCCCN(CC)CC)ccc3nnn2c31
2. Cc1ccc(-c2c(C#N)c(S)n(NS(=O)(=O)c3ccccc3)c(=O)c2C#N)cc1
3. O=C1c2sccc2C(=O)c2c(CO)csc21
4. CCOP(=O)(OCC)/C(C#N)=C/c1c(C)[nH]c2ccccc12

Found:
1. 10.4 µM (inactive)
2. 24.8 µM (inactive)
3. 6.03 µM (inactive)
4. > 100 µM (inactive)

# map each compound to its GI50
1. N#C/C(=C/n1c(=S)[nH]c2ccccc21)C(N)=O
2. NC1(P(=O)(O)O)CCCCC1
3. O=C(Cn1ccc(=O)[nH]c1=O)Nc1ccc(C(=O)O)c(O)c1
4. COC(=O)c1oc([N+](=O)[O-])c(Cl)c1Cl
5. O=C(N/C(=C\c1ccc(/C=C(\NC(=O)c2ccccc2)c2nc3ccccc3s2)cc1)c1nc2ccccc2s1)c1ccccc1
6. COc1cc(C2c3cc4c(cc3OC(N3CCOCC3)C2C)OCO4)ccc1O (stereo not drawn)

Found:
1: > 100 µM (inactive); 2: > 100 µM (inactive); 3: > 100 µM (inactive); 4: 8.11 µM (inactive); 5: 2.59 µM (inactive); 6: 14.5 µM (inactive)
